target: Ataxin-2 (Homo sapiens); test: qHTS for Inhibitors of ATXN expression.; assay type: functional
Hit rate of the full screen: of about 400,000 compounds, about 2,100 (0.53%) were called active. About 14% were inconclusive and are not listed. How the calls were made is not given here. This is one part of a sample in which actives are shown more often than they occur.
Answer with one of the outcomes 1 (active), 0 (inactive)

Reference set, count: 5
CC(=O)Nc1ccc(S(=O)(=O)NCCc2cn3nc(C)c(C)nc3n2)cc1    0
COc1ccc2cc3cc(C(=O)Nc4ccccc4N4CCN(C)CC4)oc3nc2c1    1
CCCn1c(O)c(C(=O)NCCc2ccc(OC)cc2)c(=O)c2ccccc21    0
CN1CCN(c2ccccc2NC(=S)NC(=O)c2cc3ccccc3o2)CC1    1
Cc1ccc2[nH]c(CSc3nc(C)ccc3C#N)nc2c1    0

// param item: `COc1ccc2cc3cc(C(=O)Nc4ccc5c(c4)OCO5)oc3nc2c1` ; yields the recorded call
1

Any idea what this test logged for `CCn1nc(NC(=O)Cc2ccc(OC)cc2)c2cc3cccc(C)c3nc21` ?
0

---

target: Ataxin-2 (Homo sapiens) (UniProt Q99700); test: qHTS for Inhibitors of ATXN expression.; type: functional
Sequence (Q99700 whole entry): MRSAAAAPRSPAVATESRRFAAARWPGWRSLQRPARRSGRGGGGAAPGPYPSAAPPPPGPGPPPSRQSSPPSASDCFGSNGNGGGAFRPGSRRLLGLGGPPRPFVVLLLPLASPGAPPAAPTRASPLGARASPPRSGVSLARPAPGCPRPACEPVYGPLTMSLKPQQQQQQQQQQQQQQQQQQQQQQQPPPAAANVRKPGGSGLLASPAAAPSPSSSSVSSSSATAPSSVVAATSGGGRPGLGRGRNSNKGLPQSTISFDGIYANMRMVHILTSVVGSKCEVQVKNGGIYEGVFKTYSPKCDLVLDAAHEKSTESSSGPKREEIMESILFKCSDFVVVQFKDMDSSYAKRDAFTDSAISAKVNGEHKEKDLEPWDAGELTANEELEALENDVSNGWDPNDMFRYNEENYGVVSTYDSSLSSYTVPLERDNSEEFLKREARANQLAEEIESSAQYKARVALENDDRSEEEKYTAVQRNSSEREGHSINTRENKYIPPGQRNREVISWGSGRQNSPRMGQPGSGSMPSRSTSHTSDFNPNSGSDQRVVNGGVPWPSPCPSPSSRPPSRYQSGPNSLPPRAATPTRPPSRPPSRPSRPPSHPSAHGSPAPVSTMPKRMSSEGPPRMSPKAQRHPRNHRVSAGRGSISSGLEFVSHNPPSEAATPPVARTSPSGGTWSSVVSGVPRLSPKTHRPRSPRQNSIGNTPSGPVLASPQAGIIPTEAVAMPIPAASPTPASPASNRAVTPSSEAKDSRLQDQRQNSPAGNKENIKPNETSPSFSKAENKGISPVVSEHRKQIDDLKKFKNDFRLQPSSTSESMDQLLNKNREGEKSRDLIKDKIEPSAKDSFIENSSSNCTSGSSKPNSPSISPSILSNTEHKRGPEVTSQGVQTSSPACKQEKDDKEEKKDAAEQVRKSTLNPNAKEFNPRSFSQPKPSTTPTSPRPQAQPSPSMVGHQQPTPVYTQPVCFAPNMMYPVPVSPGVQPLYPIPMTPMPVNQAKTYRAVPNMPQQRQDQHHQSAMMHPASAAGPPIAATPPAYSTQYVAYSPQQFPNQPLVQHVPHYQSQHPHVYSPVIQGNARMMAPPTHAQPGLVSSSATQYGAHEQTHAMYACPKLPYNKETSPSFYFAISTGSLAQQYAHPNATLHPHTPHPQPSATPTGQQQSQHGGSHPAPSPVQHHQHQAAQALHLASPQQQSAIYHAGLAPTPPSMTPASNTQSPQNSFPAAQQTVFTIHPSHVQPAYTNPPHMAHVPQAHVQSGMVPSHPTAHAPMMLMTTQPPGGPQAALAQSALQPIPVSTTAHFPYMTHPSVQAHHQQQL
Screen size: about 400,000 compounds; about 2,100 (0.53%) were called active. About 14% were inconclusive and are not listed. No rule for the calls is given here. Only a selection was taken, and actives are over-represented in it overall.
Tick one outcome: active, inactive

Example entries begin here.
O=C(CCl)Nc1cccc(Oc2ccccc2)c1    active
c1ccc(COc2ncnc3c2ncn3CCCNCC(c2ccccc2)c2ccccc2)cc1    active
Clc1ccccc1C1=CC(c2ccco2)n2ncnc2N1 (stereo not drawn)    inactive
CCOC(=O)c1ccc(Nc2cnc3ccccc3n2)cc1    inactive
CCN(CC)c1ccc2c(C)c(CO)c(=O)oc2c1    inactive
Cc1ccc2oc(=O)c(S(=O)(=O)c3ccc(F)cc3)cc2c1    inactive

Could you check what this test reported for `Cc1c(C)c2cc(Cl)c(O)c(CN3CCN(C)CC3)c2oc1=O` ?
inactive

I would be grateful if you could indicate the recorded call for `COC(=O)c1ccc2[nH]c3cccc(/C(=C/c4ccccc4)c4ccccc4)c3c2c1` .
active

---

molecular target: Ataxin-2 (Homo sapiens); assay: qHTS for Inhibitors of ATXN expression.; type: functional
Screen size: about 400,000 compounds; about 2,100 (0.53%) were called active. About 14% were inconclusive and are not listed. How the calls were made is not given here. Shown is part of a subset that was picked to be rich in actives.
Pick one and only one: YES = active, NO = inactive

CC1(C)NC(=O)N(CC(=O)N2CCN(S(=O)(=O)c3cc(Cl)ccc3Cl)CC2)C1=O    NO
CN(C)Cc1ccccc1CNC(=O)c1cccc(S(=O)(=O)Nc2ccc3c(c2)OCO3)c1    NO

Record lookup: outcome of this test for `CCc1nc2ccc(C(=O)Nc3ccc(Cl)c(Cl)c3)cn2c1N(C)Cc1ccc(OC)cc1` ?
YES

// return assay outcome for `CCn1cc(Cl)c(C(=O)Nc2cc(C(=O)OC)cc(C(=O)OC)c2)n1`
NO

---

molecular target: Ataxin-2 (Homo sapiens) (UniProt Q99700); experiment: qHTS for Inhibitors of ATXN expression.; format: functional
The campaign covered roughly 400,000 compounds. About 2,100 (0.53%) were called active. Inconclusive results (about 14%) are left out. No rule for the calls is given here. For the sample, actives were picked, then their nearest neighbours and some compounds at random.
# valid calls are active, inactive; nothing else

The following molecules have reported results that may help.
NC(=O)N/N=C\c1cc(Br)ccc1O    inactive
Oc1c(Br)cc(Cl)cc1/C=N/c1ccc(N2CCOCC2)cc1    inactive
Cc1cccc(NC(=O)CNC(=O)Cn2ncc(Cl)c(Cl)c2=O)c1C    active
Cc1cc(C)c2c(N)c3ccccc3nc2n1    inactive
O=C(/C=C/Nc1ccccc1Oc1ccccc1)c1ccco1    inactive
O=C(Nc1ccccc1)N1CCN(C2c3ccccc3-c3ccccc32)CC1    inactive
Nc1nc2nccc(-c3cccnc3)n2n1    inactive
Cc1cc(C)c2cc3c(N)c(C(=O)N4CCc5ccccc5C4)sc3nc2c1    inactive
Nn1c(SCC(=O)Nc2c(F)cc(F)cc2Br)nnc1C1CCCCC1    inactive
N#Cc1cccc(Cn2cc(C(F)(F)F)ccc2=O)c1    inactive

What outcome does the record of this test show for `Cc1cc(N2CCN(C)CC2)nc2ccc(NC(S)=NCCN3CCc4ccccc4C3)cc12` ?
active

What did this assay record as the result for CC(NC(=O)C12CC3CC(CC(C3)C1)C2)C(=O)N/N=C/C1=C(N2CCOCC2)C(=C\c2ccccc2)/CC1 (stereo unspecified) ?
inactive

For `COc1ccc(NC(=O)CN2CCN(c3ccccc3)CC2)cc1` , which call appears in the assay record?
inactive

Please state the recorded outcome for this molecule: `Cc1ccc(CNC(=O)Cn2ncn3cccc3c2=O)cc1`
inactive

Fill in: this test's call for CN(CC(=O)Nc1c(Cl)cccc1Cl)C(=O)C1CC(=O)N(Cc2ccccc2)C1 (stereo unspecified) is ___
inactive

Please let me know the test result on file for O=C(CCc1ccccc1)NC(c1cccs1)c1cc(Cl)c2cccnc2c1O (stereo unspecified) .
inactive
